- PROTOCOL_DESCRIPTION: Oral bioavailability in rats at escalating doses, LC/MS/MS
- RUN_PARAMETERS: male, Sprague-Dawley, rat, in vivo, po, 12 mg/kg
PROPERTY_MEASURED: Tmax (h)
Hi! Could you send only the number? It should be in h, unit omitted.

Which Tmax is reported for this compound? CC(Cc1ccccc1)NC(=O)C(N)CCCCN (stereo not shown)
1

###

- PROTOCOL_DESCRIPTION: Intranasal bioavailability of hydrocodone conjugates in rats, LC/MS/MS
- RUN_PARAMETERS: intranasal, 1 mg/kg dose, hydrocodone plus hydromorphone
Where a SMILES comes first, the peptide text is derived from it. The star is where a group is joined. X1 = COc1ccc2c3c1O[C@H]1C(O*)=CC[C@H]4[C@@H](C2)N(C)CC[C@]314
Would you kindly list Cmax for each of these compounds?
Hi! Could you send only the number? It should be in ng/mL, unit omitted.

Which Cmax is reported for this compound? CC[C@H](C)[C@H](NC(=O)[C@H](Cc1ccccc1)NC(=O)[C@H](Cc1ccccc1)NC(=O)[C@H](Cc1ccc(O)cc1)NC(=O)[C@@H](N)Cc1ccc(O)cc1)C(=O)OC1=CC[C@H]2[C@H]3Cc4ccc(OC)c5c4[C@@]2(CCN3C)[C@H]1O5 [YYFFI[SEQ ID NO: 3]-HC] (H-YYFFI-X1)
28

Which Cmax is reported for this compound? CC[C@H](C)[C@H](NC(=O)[C@H](CC(=O)O)NC(=O)[C@@H](N)CC(=O)O)C(=O)OC1=CC[C@H]2[C@H]3Cc4ccc(OC)c5c4[C@@]2(CCN3C)[C@H]1O5 [DDI-HC, Asp-Asp-Ile-Hydrocodone]
281

Which Cmax is reported for this compound? COc1ccc2c3c1O[C@H]1C(OC(=O)[C@H](Cc4ccccc4)NC(=O)[C@H](Cc4ccccc4)NC(=O)[C@H](Cc4ccccc4)NC(=O)[C@H](CCC(=O)O)NC(=O)[C@@H](N)CCC(=O)O)=CC[C@H]4[C@@H](C2)N(C)CC[C@]314 [EEFFF[SEQ ID NO: 3]-HC] (H-EEFFF-X1)
34

Which Cmax is reported for this compound? CC[C@H](C)[C@H](NC(=O)[C@H](Cc1ccc(O)cc1)NC(=O)[C@@H](N)Cc1ccc(O)cc1)C(=O)OC1=CC[C@H]2[C@H]3Cc4ccc(OC)c5c4[C@@]2(CCN3C)[C@H]1O5 [YYI-HC, Tyr-Tyr-Ile-Hydrocodone]
31

###

- PROTOCOL_DESCRIPTION: Intranasal bioavailability of hydrocodone conjugates in rats, LC/MS/MS
- RUN_PARAMETERS: intranasal, 1 mg/kg dose, relative to hydrocodone bitartrate
Where a SMILES comes first, the peptide text is derived from it. The star is where a group is joined. X1 = COc1ccc2c3c1O[C@H]1C(O*)=CC[C@H]4[C@@H](C2)N(C)CC[C@]314
PROPERTY_MEASURED: Percent HC (AUC) (%)
Hi! Could you send only the number? It should be in %, unit omitted.

Which Percent HC (AUC) is reported for this compound? CC[C@H](C)[C@H](NC(=O)[C@H](Cc1ccc(O)cc1)NC(=O)[C@@H](N)Cc1ccc(O)cc1)C(=O)OC1=CC[C@H]2[C@H]3Cc4ccc(OC)c5c4[C@@]2(CCN3C)[C@H]1O5 [YYI-HC, Tyr-Tyr-Ile-Hydrocodone]
4

Which Percent HC (AUC) is reported for this compound? CC[C@H](C)[C@H](NC(=O)[C@H](CC(=O)O)NC(=O)[C@@H](N)CC(=O)O)C(=O)OC1=CC[C@H]2[C@H]3Cc4ccc(OC)c5c4[C@@]2(CCN3C)[C@H]1O5 [DDI-HC, Asp-Asp-Ile-Hydrocodone]
31

Which Percent HC (AUC) is reported for this compound? CC[C@H](C)[C@H](NC(=O)[C@H](Cc1ccccc1)NC(=O)[C@H](Cc1ccccc1)NC(=O)[C@H](Cc1ccc(O)cc1)NC(=O)[C@@H](N)Cc1ccc(O)cc1)C(=O)OC1=CC[C@H]2[C@H]3Cc4ccc(OC)c5c4[C@@]2(CCN3C)[C@H]1O5 [YYFFI[SEQ ID NO: 3]-HC] (H-YYFFI-X1)
100

Which Percent HC (AUC) is reported for this compound? COc1ccc2c3c1O[C@H]1C(OC(=O)[C@H](Cc4ccccc4)NC(=O)[C@H](Cc4ccccc4)NC(=O)[C@H](Cc4ccccc4)NC(=O)[C@H](CCC(=O)O)NC(=O)[C@@H](N)CCC(=O)O)=CC[C@H]4[C@@H](C2)N(C)CC[C@]314 [EEFFF[SEQ ID NO: 3]-HC] (H-EEFFF-X1)
14

###

- PROTOCOL_DESCRIPTION: Oral bioavailability of hydrocodone conjugates in rats, LC/MS/MS
- RUN_PARAMETERS: oral, 5 mg/kg dose, relative to hydrocodone bitartrate
Where a SMILES comes first, the peptide text is derived from it. The star is where a group is joined. X1 = COc1ccc2c3c1O[C@H]1C(O*)=CC[C@H]4[C@@H](C2)N(C)CC[C@]314
PROPERTY_MEASURED: Percent HC (Cmax) (%)
Hi! Could you send only the number? It should be in %, unit omitted.

Which Percent HC (Cmax) is reported for this compound? CC[C@H](C)[C@H](NC(=O)[C@H](Cc1ccccc1)NC(=O)[C@H](Cc1ccccc1)NC(=O)[C@H](CCC(=O)O)NC(=O)[C@@H](N)CCC(=O)O)C(=O)OC1=CC[C@H]2[C@H]3Cc4ccc(OC)c5c4[C@@]2(CCN3C)[C@H]1O5 [EEFFI[SEQ ID NO: 5]-HC] (H-EEFFI-X1)
47

Which Percent HC (Cmax) is reported for this compound? CC[C@H](C)[C@H](NC(=O)[C@H](Cc1ccc(O)cc1)NC(=O)[C@@H](N)Cc1ccc(O)cc1)C(=O)OC1=CC[C@H]2[C@H]3Cc4ccc(OC)c5c4[C@@]2(CCN3C)[C@H]1O5 [YYI-HC, Tyr-Tyr-Ile-Hydrocodone]
41

Which Percent HC (Cmax) is reported for this compound? CC[C@H](C)[C@H](NC(=O)[C@H](CC(=O)O)NC(=O)[C@@H](N)CC(=O)O)C(=O)OC1=CC[C@H]2[C@H]3Cc4ccc(OC)c5c4[C@@]2(CCN3C)[C@H]1O5 [DDI-HC, Asp-Asp-Ile-Hydrocodone]
158

Which Percent HC (Cmax) is reported for this compound? CC[C@H](C)[C@H](NC(=O)[C@H](Cc1ccccc1)NC(=O)[C@H](Cc1ccccc1)NC(=O)[C@H](Cc1ccc(O)cc1)NC(=O)[C@@H](N)Cc1ccc(O)cc1)C(=O)OC1=CC[C@H]2[C@H]3Cc4ccc(OC)c5c4[C@@]2(CCN3C)[C@H]1O5 [YYFFI[SEQ ID NO: 8]-HC] (H-YYFFI-X1)
63

###

- PROTOCOL_DESCRIPTION: Crossover pharmacokinetics in dogs, oral vs 30-min intravenous infusion, LC-MS/MS
- Assay type: in vivo, male beagle dogs
- RUN_PARAMETERS: male, beagle, dog, plasma, po, 1 mg/kg, male beagle dog; oral; 1 mg/kg d-amphetamine base; mean; read-out: CL/F of L-lysine-d-amphetamine (converted)
PROPERTY_MEASURED: CL/F (mL/min/kg)
Hi! Could you send only the number? It should be in mL/min/kg, unit omitted.

Which CL/F is reported for this compound? CC(Cc1ccccc1)NC(=O)C(N)CCCCN (stereo not shown)
106

###

- PROTOCOL_DESCRIPTION: Oral bioavailability of hydrocodone conjugates in rats, LC/MS/MS
- RUN_PARAMETERS: male, Sprague-Dawley, rat, plasma, po, 5 mg/kg
PROPERTY_MEASURED: concentration at 4 h (ng/mL)
Hi! Could you send only the number? It should be in ng/mL, unit omitted.

Which concentration at 4 h is reported for this compound? COc1ccc2c3c1O[C@H]1C(=O)CC[C@H]4[C@@H](C2)N(C)CC[C@]314 [Hydrocodone, reference compound]
4.9

###

- PROTOCOL_DESCRIPTION: Intranasal bioavailability of hydrocodone conjugates in rats, LC/MS/MS
- RUN_PARAMETERS: male, Sprague-Dawley, rat, plasma, other: intranasal, 1 mg/kg
PROPERTY_MEASURED: concentration at 60 min (ng/mL)
Hi! Could you send only the number? It should be in ng/mL, unit omitted.

Which concentration at 60 min is reported for this molecule? COc1ccc2c3c1O[C@H]1C(=O)CC[C@H]4[C@@H](C2)N(C)CC[C@]314 [Hydrocodone, reference compound]
96

###

- PROTOCOL_DESCRIPTION: Oral bioavailability of hydrocodone conjugates in rats, LC/MS/MS
- RUN_PARAMETERS: male, Sprague-Dawley, rat, plasma, po, 1 mg/kg
PROPERTY_MEASURED: concentration at 4 h (ng/mL)
Hi! Could you send only the number? It should be in ng/mL, unit omitted.

Which concentration at 4 h is reported for this molecule? COc1ccc2c3c1O[C@H]1C(=O)CC[C@H]4[C@@H](C2)N(C)CC[C@]314 [Hydrocodone, reference compound]
1

meta.source: patent US7375083B2
